- STUDY_SYSTEM: human GCGR (Homo sapiens (Human), UniProt P47871)
- Sequence (P47871 26-477): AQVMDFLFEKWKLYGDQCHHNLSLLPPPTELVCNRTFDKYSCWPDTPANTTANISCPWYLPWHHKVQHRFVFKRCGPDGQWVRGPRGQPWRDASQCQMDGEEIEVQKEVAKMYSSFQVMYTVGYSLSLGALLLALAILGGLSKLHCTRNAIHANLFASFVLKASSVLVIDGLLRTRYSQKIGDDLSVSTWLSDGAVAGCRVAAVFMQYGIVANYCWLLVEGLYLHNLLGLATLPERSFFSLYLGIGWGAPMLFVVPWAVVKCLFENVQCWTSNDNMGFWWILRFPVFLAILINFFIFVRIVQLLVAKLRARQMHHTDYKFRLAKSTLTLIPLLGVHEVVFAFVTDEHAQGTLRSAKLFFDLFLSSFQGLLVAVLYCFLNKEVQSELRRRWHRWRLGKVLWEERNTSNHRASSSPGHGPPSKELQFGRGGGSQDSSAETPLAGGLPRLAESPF
- ASSAY_PROTOCOL: Cellular functional assay, cAMP readout (glucagon-stimulated cAMP in HEK293 cells expressing human GCGR)
- Assay type: cell-based
- CONDITION_LABEL: hGluc-1 HEK cells, LANCE TR-FRET, IC50 converted to Ki, average if tested more than once
pKi: −log10 of the molar value.
OBSERVED_PROPERTY: pKi

> print(dat)
                                chem.smiles  reading
1  O=C(O)CCNC(=O)c1ccc(-c2cc(Cl)ccc2C(=O)Nc2ccc(-c3ccc(F)cc3)cc2)cn1     6.80

A: COc1ccc(-c2ccc(NCc3ccc(Cl)cc3-c3ccc(C(=O)NCCC(=O)O)nc3)cc2)c(Cl)c1
B: O=C(O)CCNC(=O)c1ccc(-c2cc(Cl)ccc2CNc2ccc(-c3cccc(C(F)(F)F)c3)cc2)cn1
Between A and B , whose recorded pKi is greater? Reply with the label of the item you choose.
A

###

- STUDY_SYSTEM: human GCGR (Homo sapiens (Human), UniProt P47871)
- ASSAY_PROTOCOL: Cellular functional assay, cAMP readout (glucagon-stimulated cAMP in HEK293 cells expressing human GCGR)
- Assay type: cell-based
- CONDITION_LABEL: hGluc-1 HEK cells, LANCE TR-FRET, IC50 converted to Ki, average if tested more than once
- Protocol: IC50 Values in Cellular Functional Assays: cAMP Readout Full-length human GCGR (Accession Number: NM000160) subcloned into pcDNA3.1 was stably transfected into HEK293 cells (hGluc-1 HEK) and maintained under G418 selection (500 μg/mL). […] Glucagon stimulated cAMP was quantified using LANCE technology as per manufacturer instructions. […] The mixture was incubated, protected from light for 1.5 h. cAMP levels were quantified by TR-FRET in an EnVision instrument against a known standard. […]
pKi: −log10 of the molar value.
OBSERVED_PROPERTY: pKi

Answered examples (4):
> print(dat)
                                   molecule  observed.property  reading
1  CC(C)(C)c1ccc(-c2ccc(NCc3ccc(C(F)(F)F)cc3-c3ccc(C(=O)NCCC(=O)O)nc3)cc2C(F)(F)F)cc1 [Compound 124]                pKi     6.55
2  Cc1cc(Cl)ccc1-c1ccc(NCc2c(C)cc(C(F)(F)F)cc2-c2ccc(C(=O)NCCC(=O)O)nc2)cc1Cl [Compound 165]                pKi     8.19
3  O=C(O)CCNC(=O)c1ccc(-c2cc(Cl)ccc2CNc2ccc(-c3ccc(Cl)cc3Cl)cc2)cn1 [Compound 7]                pKi     7.35
4  O=C(O)CCNC(=O)c1ccc(-c2cc(C(F)(F)F)ccc2CNc2ccc(-c3ccc(Cl)c(C(F)(F)F)c3)c(Cl)c2)cn1 [Compound 32]                pKi     7.14

P: O=C(O)CCNC(=O)c1ccc(-c2cc(F)c(F)cc2CNc2ccc(-c3ccc(Cl)c(C(F)(F)F)c3)c(Cl)c2)cn1 [Compound 106]
Q: O=C(O)CCNC(=O)c1ccc(-c2cc(C(F)(F)F)c(Cl)cc2CNc2ccc(-c3ccc(Cl)cc3Cl)cc2)cn1 [Compound 82]
Of the two listed items, which has the higher pKi? First: P Second: Q Refer to your chosen item by its label in the answer.
Q
